experiment: Compound 1 single dose non-human primate PK study; format: in vivo, Cynomolgus Macaques; conditions: cynomolgus monkey, plasma, po, 5 mg/kg, NHP, single po dose 5 mg/kg, Mean of the 3 animals; read-out: Cmax
experimentalReadout: Cmax

## Input What Cmax value was documented for this molecule, CC(=O)N1CCc2c(C(=O)N3CCC(c4ccc(F)c(F)c4C(F)(F)F)CC3)n[nH]c2C1 ?
## Output 406 ng/mL

---

assay: Compound 1 single dose non-human primate PK study; type: in vivo, Cynomolgus Macaques; conditions: cynomolgus monkey, plasma, iv, 1 mg/kg, NHP, single iv dose 1 mg/kg, Mean of the 3 animals; first plasma collection time listed as Tmax; read-out: Tmax
experimentalReadout: Tmax (min)
Expressed in min, but write only the number.

## Input What Tmax value was documented for this compound, CC(=O)N1CCc2c(C(=O)N3CCC(c4ccc(F)c(F)c4C(F)(F)F)CC3)n[nH]c2C1 ?
## Output 16.2

---

experiment: Compound 2 single dose rat PK study; type: in vivo, male Sprague Dawley rats; settings: male, Sprague Dawley, plasma, po, 5 mg/kg, single po dose 5 mg/kg, individual rats
experimentalReadout: MRT inf (h)
Expressed in h, but write only the number.

## Input What MRT inf value was documented for this compound, CC(=O)N1Cc2[nH]nc(C(=O)N3CCC(c4ccc(F)c(F)c4C(F)(F)F)CC3)c2C1 [Compound 2] ?
## Output 5

---

assay: Compound 1 single dose rat PK study; type: in vivo, male Sprague Dawley rats; conditions: male, Sprague Dawley, plasma, po, 5 mg/kg, single po dose 5 mg/kg, Mean of the 3 rats
experimentalReadout: MRT inf (h)
Expressed in h, but write only the number.

## Input What MRT inf value was documented for this compound, CC(=O)N1CCc2c(C(=O)N3CCC(c4ccc(F)c(F)c4C(F)(F)F)CC3)n[nH]c2C1 ?
## Output 9.9

---

experiment: Compound 1 single dose rat PK study; assay type: in vivo, male Sprague Dawley rats; settings: male, Sprague Dawley, plasma, po, 5 mg/kg, t1/2, rat, single po dose 5 mg/kg, Mean of the 3 rats, heading: t1/2
experimentalReadout: half-life (h)
Expressed in h, but write only the number.

## Input What half-life value was documented for this molecule, CC(=O)N1CCc2c(C(=O)N3CCC(c4ccc(F)c(F)c4C(F)(F)F)CC3)n[nH]c2C1 [Compound 1] ?
## Output 7.6
